Each entry below carries its recorded Kd.
- SYSTEM_NAME: T1, Cyno HER3: CD33-[Cyno HER3, residues 20-643]-TAG (cynomolgus monkey, UniProt G7PIG5 20-643)
- T1 construct: also called cy HER3-Tag; not shown: C-terminal TAG (e.g. FLAG TAG)
- ASSAY_SUMMARY: solution equilibrium titration (SET), IgG, ECL read-out
State the answer as a number, implicitly in nM.

>>> value("MOR12514 (antibody, human IgG1, lambda, V domains shown, Tested as IgG) VH: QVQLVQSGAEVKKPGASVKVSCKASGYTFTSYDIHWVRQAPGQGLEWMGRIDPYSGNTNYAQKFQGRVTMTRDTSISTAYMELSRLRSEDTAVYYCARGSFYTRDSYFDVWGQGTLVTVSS VL: DIALTQPASVSGSPGQSITISCTGTSSDVGTYNQVSWYQQHPGKAPKLMIYGVSKRPSGVSNRFSGSKSGNTASLTISGLQAEDEADYYCQVRDMSLFDVFGGGTKLTVLG")
1.4
>>> value("MOR14537 (antibody, human IgG1, lambda, V domains shown, Tested as IgG) VH: QVQLVQSGAEVKKPGASVKVSCKASGYTFTSYDIHWVRQAPGQGLEWMGRIDPYSGNTNYAQKFQGRVTMTRDTSISTAYMELSRLRSDDTAVYYCARGSFYTRDSYFDVWGQGTLVTVSS VL: QSALTQPASVSGSPGQSITISCTGTSSDVGTYNQVSWYQQHPGKAPKLMIYGVSKRPSGVSNRFSGSKSGNTASLTISGLQAEDEADYYCSSATQKPDVTVFGGGTKLTVLG")
0.14

INPUT: Which Kd value is on record for MOR12606 (antibody, human IgG1, kappa, V domains shown, Tested as IgG) VH: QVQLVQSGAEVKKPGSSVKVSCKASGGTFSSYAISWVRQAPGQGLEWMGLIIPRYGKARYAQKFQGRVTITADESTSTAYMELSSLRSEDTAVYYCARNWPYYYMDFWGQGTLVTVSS VL: DIVLTQSPATLSLSPGERATLSCRASQNIVFNLAWYQQKPGQAPRLLIYDASNRATGVPARFSGSGSGTDFTLTISSLEPEDFAVYYCQQTKSKPSPTFGQGTKVEIKR ?
OUTPUT: 2.6
